- System: KRas-mediated phosphorylation of ERK in MKN1 cells
- protocol.text: Inhibition of KRas-mediated phosphorylation of ERK (Cisbio HTRF pERK), MKN1 cells
- Assay type: cell-based
- condition.context: Homo sapiens, MKN-1
assay.endpoint: IC50 (nM)

[
  {
    "molecule": "CCc1c(F)ccc2cc(O)cc(-c3ncc4c(N5C[C@@H]6C[C@H](C5)[C@H](O)[C@@H]6O)nc(OC[C@@]56CCCN5C[C@H](F)C6)nc4c3F)c12 [Example 568]",
    "IC50, nM": 2
  }
]

(a) CCc1c(F)ccc2cc3[nH]ncc3c(-c3ncc4c(N5CCC[C@@](C)(O)C5)nc(OC[C@@]56CCCN5C[C@H](F)C6)nc4c3F)c12 [Example 776]
(b) CCc1c(F)ccc2cc(O)cc(-c3ncc4c(N5CCC(O)C(F)(F)CC5)nc(OC[C@@]56CCCN5C[C@H](F)C6)nc4c3F)c12 (some centres unmarked) [Example 586]
Incoming: For a and b , which recorded IC50 is lower? Indicate your choice by writing its label.
Outgoing: a
(a: 16 nM, b: 25 nM)

====

- subject.of.test: KRas^WT (Homo sapiens)
- Construct: Biotinylated KRas (corresponding to amino acids 1-169, produced at Accelegan Inc.); biotin (biotinylated); purchased Accelegan Inc
- Sequence (P01116 1-169 isoform P01116-2): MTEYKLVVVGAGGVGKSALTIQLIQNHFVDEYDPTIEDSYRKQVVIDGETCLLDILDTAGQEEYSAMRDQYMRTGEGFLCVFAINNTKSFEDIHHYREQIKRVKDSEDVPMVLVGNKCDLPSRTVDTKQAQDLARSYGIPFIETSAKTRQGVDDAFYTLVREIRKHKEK
- protocol.text: KRas binding assay (TR-FRET tracer displacement), KRas WT
- condition.context: TR-FRET tracer displacement, KRas WT
assay.endpoint: IC50 (nM)

See these solved cases before continuing.
[
  {
    "molecule": "O=S1(=O)NCC2(CCCN(c3nc(OCC45CCCN4CCC5)nc4c(F)c(-c5cc(O)cc(Cl)c5C5CC5)ncc34)C2)N1 (stereo not shown) [Example 745]",
    "quantitative.readout": 4
  },
  {
    "molecule": "CCc1cccc2cc3[nH]ncc3c(-c3ncc4c(N5CCCn6nc(C(=O)N(C)C)cc6C5)nc(OC[C@@]56CCCN5C[C@H](F)C6)nc4c3F)c12 [Example 770]",
    "quantitative.readout": 15
  },
  {
    "molecule": "Oc1cc(-c2ncc3c(N4C[C@@H]5C[C@H](C4)[C@H](O)C5)nc(OC[C@@]45CCCN4C[C@H](F)C5)nc3c2F)c2ccc(Cl)cc2c1 [Example 763]",
    "quantitative.readout": 36
  },
  {
    "molecule": "C[C@@]1(O)CCCN(c2nc(OCC34CCCN3CCC4)nc3c(F)c(-c4ccc(F)c5sc(N)nc45)ncc23)C1 [Example 735]",
    "quantitative.readout": 1840
  },
  {
    "molecule": "Cc1cc2[nH]ncc2c(-c2ncc3c(N4CCCC5(C4)NC(=O)NC5=O)nc(OCC45CCCN4CCC5)nc3c2F)c1C (stereo not shown) [Example 728]",
    "quantitative.readout": 34
  }
]

(1) CCc1c(F)ccc2cc(O)cc(-c3ncc4c(N5CC6CCC(C5)S6)nc(OC[C@@]56CCCN5C[C@H](F)C6)nc4c3F)c12 [Example 922]
(2) Oc1cc(Cl)c(C2CC2)c(-c2ncc3c(N4CCC[C@]5(C4)C[C@@H](O)C5)nc(OCC45CCCN4CCC5)nc3c2F)c1 [Example 743]
(3) Cc1c(O)cc(-c2ncc3c(N4C[C@@H]5C[C@H](C4)[C@H](O)C5)nc(OC[C@@]45CCCN4C[C@H](F)C5)nc3c2F)c2ccccc12 [Example 790]
Incoming: Form: Sort by [IC50] Order [ ascending ] The reply should contain the labels ordered as requested.
Outgoing: 2, 1, 3
(2: 9 nM, 1: 21 nM, 3: 10600 nM)
